Would you kindly list chromatographic logP for each of these compounds?
assay_procedure: LogP measurement by HPLC on reversed phase columns (EEC directive 79/831 Annex V.A8)
Format: physicochemical
conditions_used: reversed phase HPLC column, method [a]: LC-UV, acidic range, 0.1% formic acid in water and acetonitrile as eluent

Consider the compound CCN(C)C=Nc1cc(C)c(Oc2ccnc(SCC(C)C)n2)cc1C and give its measured chromatographic logP.
1.61

Also, CCN(C)C=Nc1cc(C)c(Oc2ccnc(SC(C)C)n2)cc1Cl please.
1.52

Also, CCCSc1nccc(Oc2cc(C)c(N=CN(C)CC)cc2C(F)F)n1 please.
1.55

Also, CCN(C)C=Nc1cc(C)c(Oc2ccnc(Sc3ccccc3F)n2)cc1C please.
1.6

Also, CCN(C)C=Nc1cc(C)c(Oc2ccnc(SCCC(F)(F)F)n2)cc1C please.
1.58

Also, CCN(C)C=Nc1cc(C(F)(F)F)c(Oc2ccnc(SCC(C)C)n2)cc1C please.
1.93

Also, CCN(C)C=Nc1cc(C)c(Oc2ccnc(SCC(C)C)n2)cc1Cl please.
1.72

Also, CCN(C)C=Nc1cc(C)c(Oc2ccnc(SCC(F)(F)F)n2)cc1C please.
1.52
